The measurements presented in this section are drawn from ChEMBL document CHEMBL1136801.

Tested on: DuPro
assay.details: Growth inhibitory effect was assessed against the human prostate tumor cell line DuPro using MTT assay
Format: functional
condition: read-out: ID50 (the source's name)
pIC50: −log10 of the molar value.
pIC50 listing for selected compounds.
measured.property: pIC50

• CCNCC1CC1CNCC1CC1CNCC1CC1CNCC.Cl (stereo not given) = 6.20
• CCNCCCCNCCCCNCCCCNCCCCNCC1CC1CNCCCCNCCCCNCCCCNCCCCNCC (stereo not given) = 6.47
• CCNCC1CC1CNCCCCNCC1CC1CNCC.Cl (stereo not given) = 6.59
• CCNCCCCNCC1CC1CNCCCCNCCCCNCC1CC1CNCCCCNCCCCNCC1CC1CNCCCCNCC.Cl (stereo not given) = 6.70
• CCNCCCCNCC1CC1CNCCCCNCC1CC1CNCCCCNCC.Cl (stereo not given) = 6.42

* * *

Test system: PC-3
assay.details: Growth inhibitory effect was assessed against the human prostate tumor cell line PC-3 using MTT assay
Type: functional
condition: read-out: ID50 (the source's name)
measured.property: IC50 (nM)

- CCNCCCCNCCCCNCCCCNCCCCNCC1CC1CNCCCCNCCCCNCCCCNCCCCNCC (stereo not given): 400
- CCNCCCCNCC1CC1CNCCCCNCCCCNCC1CC1CNCCCCNCCCCNCC1CC1CNCCCCNCC.Cl (stereo not given): 300

* * *

System: PC-3
assay.details: Growth inhibitory effect was assessed against the human prostate tumor cell line PC-3 using MTT assay
Assay type: functional
condition: read-out: ID50 (the source's name)
pIC50: −log10 of the molar value.
Reported values of pIC50 for individual entries
measured.property: pIC50

- CCNCC1CC1CNCCCCNCC1CC1CNCC.Cl (stereo not drawn): < 4.51
- CCNCC1CC1CNCC1CC1CNCC1CC1CNCC.Cl (stereo not drawn): < 4.50
- CCNCCCCNCC1CC1CNCCCCNCC1CC1CNCCCCNCC.Cl (stereo not drawn): < 4.51
